# METHOD_SUMMARY: Pharmacokinetics in rats (plasma) after oral administration
# Type: in vivo
# TEST_CONTEXT: rat, in vivo, po, SD rats, p.o. 5 mg/kg
// half-life lookup, one value per entry
Number only, in h; omit the unit.

[[record]]
compound = "Nc1nc2cc3c(cc2n2cncc12)C(=O)N(C1COc2cc(C(F)(F)F)ccc21)CCC/C=C\\3 (racemic)"
observed = 4.7


stdin: # query: half-life of entry Nc1nc2cc3c(cc2n2cncc12)C(=O)N([C@@H]1COCc2nc(C(F)(F)F)ccc21)CC/C=C\3 (single isomer, unassigned) [Example 311-P1]
stdout: 1.8

stdin: # query: half-life of entry C[C@H]1OCc2c1c(N)nc1cc3c(cc21)C(=O)N(Cc1ccc(S(F)(F)(F)(F)F)cn1)CCCOC3 [Example 437-P1]
stdout: 2.4

----------
// AUC(0-inf) lookup, one value per entry
# METHOD_SUMMARY: Pharmacokinetics in rats (plasma) after oral administration
# Format: in vivo
# TEST_CONTEXT: rat, po, SD rats, p.o. 5 mg/kg
Number only, in µg·h/mL; omit the unit.

Below, each entry is followed by its recorded AUC(0-inf) result.
[[record]]
compound = "Nc1nc2cc3c(cc2c2c1COC2)C(=O)N(Cc1ccc(C(F)(F)F)cn1)CC/C=C\\3 [Example 638]"
endpoint_label = "AUC(0-inf)"
observed = 0.929

[[record]]
compound = "Nc1nc2cc3c(cc2c2c1COC2)C(=O)N(Cc1ccc(C(F)(F)F)cn1)CCCOC3 [Example 178]"
endpoint_label = "AUC(0-inf)"
observed = 2.79


Consider now this further compound.
stdin: # query: AUC(0-inf) of entry Nc1nc2cc3c(cc2c2c1COC2)C(=O)N(Cc1ccc(S(F)(F)(F)(F)F)cn1)CCCOC3 [Example 434]
stdout: 2.33

----------
// pIC50 lookup, one value per entry
# Test system: HCT116 wild-type cells
# METHOD_SUMMARY: Cell proliferation inhibition (CellTiter-Glo), HCT116 wild-type cells
# Type: cell-based
# TEST_CONTEXT: Homo sapiens, HCT-116, read-out: HCT116 IC50
Interpret pIC50 as the negative base-10 log of the concentration measured in mol/L.

Below, each entry is followed by its recorded pIC50 result.
[[record]]
compound = "C[C@H]1OCc2c1c(N)nc1cc3c(cc21)C(=O)N(Cc1ccc(S(F)(F)(F)(F)F)cn1)CCCOC3 [Example 437-P1]"
observed = 6.73

[[record]]
compound = "Nc1nc2cc3c(cc2c2c1COC2)C(=O)N(Cc1ccc(S(F)(F)(F)(F)F)cn1)CCCOC3 [Example 434]"
observed = 6.24

[[record]]
compound = "Nc1nc2cc3c(cc2n2cncc12)C(=O)N(Cc1ccc(-c2c(F)cccc2F)cn1)CCCOC3 [Example 298]"
observed = 6.66


stdin: Any idea what pIC50 came out for CC1CCCN(Cc2ccc(C(F)(F)F)cn2)C(=O)c2cc3c(cc2C1)nc(N)c1cncn13 (racemic) [Example 514] on HCT116 wild-type cells?
stdout: 6.09

----------
# METHOD_SUMMARY: Pharmacokinetics in rats (plasma) after oral administration
# Assay type: in vivo
# TEST_CONTEXT: male, rat, po, SD rats, p.o. 5 mg/kg, read-out: tmax
ENDPOINT_LABEL: Tmax (h)
Number only, in h; omit the unit.

Below, each entry is followed by its recorded Tmax result.
[[record]]
compound = "Nc1nc2cc3c(cc2n2cncc12)C(=O)N(Cc1ccc(C(F)(F)F)cn1)CC/C=C\\3"
endpoint_label = "Tmax"
observed = 2

[[record]]
compound = "Nc1nc2cc3c(cc2n2cncc12)C(=O)N(C1COCc2nc(C(F)(F)F)ccc21)CCC/C=C\\3 (centres unmarked)"
endpoint_label = "Tmax"
observed = 0.5

[[record]]
compound = "Nc1nc2cc3c(cc2n2cncc12)C(=O)N(C1COCc2nc(C(F)(F)F)ccc21)CCCC/C=C\\3 (single isomer, unassigned) [Example 62-P1]"
endpoint_label = "Tmax"
observed = 1

[[record]]
compound = "Nc1nc2cc3c(cc2c2c1COC2)C(=O)N(C1COCc2nc(C(F)(F)F)ccc21)CCC/C=C\\3 (single isomer, unassigned) [Example 165-P1]"
endpoint_label = "Tmax"
observed = 1


Consider now this further compound.
stdin: # query: Tmax of entry `Nc1nc2cc3c(cc2n2cncc12)C(=O)N(Cc1ccc(S(F)(F)(F)(F)F)cn1)CCCOC3`
stdout: 2
